Values were extracted from patent US20080188528A1.

- targetOrSystem: human C3a receptor (C3aR) (Homo sapiens)
- Construct: expressed in transfected cells
- Sequence (Q16581 whole entry): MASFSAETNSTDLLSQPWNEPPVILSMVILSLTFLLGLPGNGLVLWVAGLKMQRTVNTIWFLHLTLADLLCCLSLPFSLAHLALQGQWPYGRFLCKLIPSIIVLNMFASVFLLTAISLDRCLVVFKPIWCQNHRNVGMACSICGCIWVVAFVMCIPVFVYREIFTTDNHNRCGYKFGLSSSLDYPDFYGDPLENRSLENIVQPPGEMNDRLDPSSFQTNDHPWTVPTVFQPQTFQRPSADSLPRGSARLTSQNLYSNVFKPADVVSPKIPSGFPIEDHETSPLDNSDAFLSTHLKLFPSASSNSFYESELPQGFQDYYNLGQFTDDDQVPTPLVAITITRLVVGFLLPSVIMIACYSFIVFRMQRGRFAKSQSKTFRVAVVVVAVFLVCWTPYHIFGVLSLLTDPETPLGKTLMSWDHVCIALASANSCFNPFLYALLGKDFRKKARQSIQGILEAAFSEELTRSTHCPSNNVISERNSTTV
- assaySummary: Inhibition of human [125I]-C3a binding to human C3a receptor (SPA, membranes of HEK293 cells expressing recombinant C3aR)
- assayConditions: 0.1 nM [125I]-C3a, 3 hours at room temperature; Table 6
- Protocol: Inhibition of human [^125I]-C3a binding to human C3a receptor Binding of human [^125I]-C3a to human C3a receptor (C3aR) was done using cell membranes from HEK293 cells stably expressing recombinant C3aR, in a homogeneous scintillation proximity assay (SPA). […] Incubation was done for 3 hours at room temperature followed by reading in a TopCount scintillation microplate reader. Non-specific binding was determined by adding 1 μM unlabeled C3a (Calbiochem) to the assay mixture. […]
readoutType: IC50

N=C(N)NCCC[C@H](NC(=O)c1ccc(C(c2ccccc2)c2ccccc2)s1)C(=O)O
< 50 nM

Qu. Find the measured IC50: item CC(=N)NCCC[C@H](NC(=O)c1ccc(C(c2cccs2)c2cccs2)s1)C(=O)O , target or system human C3a receptor (C3aR) (Homo sapiens).
Ans. 50 to 500 nM

Qu. Find the measured IC50: item N=C(N)NC(=O)CC[C@H](NC(=O)c1ccc(C(c2ccccc2)c2ccccc2)s1)C(=O)O , target or system human C3a receptor (C3aR) (Homo sapiens).
Ans. < 50 nM

Qu. Find the measured IC50: item CC(=N)NCCC[C@H](NC(=O)c1cccn(Cc2ccccc2)c1=O)C(=O)O , target or system human C3a receptor (C3aR) (Homo sapiens).
Ans. 500 to 20000 nM

Qu. Find the measured IC50: item CC(=N)NCCC[C@H](NC(=O)c1ccc(C(c2ccc(Cl)cc2)c2ccc(Cl)cc2)s1)C(=O)O , target or system human C3a receptor (C3aR) (Homo sapiens).
Ans. 50 to 500 nM

Qu. Find the measured IC50: item N=CNCCC[C@H](NC(=O)c1ccc(C(c2ccccc2)c2ccccc2)s1)C(=O)O , target or system human C3a receptor (C3aR) (Homo sapiens).
Ans. 50 to 500 nM
